viability at 28.5 h, 10 µM overview
Experiment: in vitro
Settings: human, hela cells, % viability
Response body: numeric value in %, unit text excluded.

Field: example entries. Status: answers known.
MOLECULE: CCN1C(=O)C2(CC(=O)N(CC(=O)OC)C2=O)c2cc(Cl)ccc21 (stereo not drawn)
viability at 28.5 h, 10 µM [%]: 93.7
--
MOLECULE: COc1ccc(C(=O)N2CCN(c3ncnc4onc(C)c34)CC2)cc1
viability at 28.5 h, 10 µM [%]: 93.5
--
MOLECULE: COc1ccc(S(=O)(=O)N2CCC(C(=O)Nc3ccccc3SC)CC2)cc1C
viability at 28.5 h, 10 µM [%]: 96.2
--
MOLECULE: Cc1scnc1CN1CCn2nc(C(O)Cc3ccccc3)cc2C1 (stereo not drawn)
viability at 28.5 h, 10 µM [%]: 90.9
--
MOLECULE: Cc1cc(C)nc(NC(=O)OCCN2CCN(C)CC2)c1
viability at 28.5 h, 10 µM [%]: 92.2
--
MOLECULE: CC1CC1c1nnc(C2(c3ccc(Br)cc3)CCOCC2)o1 (stereo not drawn)
viability at 28.5 h, 10 µM [%]: 94.1

Exercise: Form field: reported viability at 28.5 h, 10 µM of Cc1ccc(S(=O)(=O)N2CCN(c3ccc([N+](=O)[O-])c(NCCN4CCOCC4)c3)CC2)cc1
Solution: 102

Exercise: Also need CC(=O)Nc1ccc(S(=O)(=O)N2CCN(CCO)CC2)cc1 , thanks.
Solution: 95.1

Exercise: Same question, Cn1c(=O)n(C)c2cc(NC(=O)C(F)(F)F)ccc21 this time
Solution: 80.9

Exercise: Now try Cc1c(NC(=O)C2CCN(c3ccccc3Cl)C2)nnn1C (stereo not drawn) .
Solution: 90.7

Exercise: Entry to check: CCCOc1cccn2c(N(CC(=O)N(C)C)C(C)=O)c(CC)nc12
Solution: 102

====

Assay: in vitro
Conditions: human, hela cells, % viability
ENDPOINT NAME: viability at 28.5 h, 10 µM (%)
Numbers only; they are read as %.

Exercise: Query (compound): COc1ccc(-c2cnc3[nH]c(=O)n([C@H](C)c4ccccc4)c3n2)c(OC)c1OC ; field requested: viability at 28.5 h, 10 µM
Solution: 94.7

Exercise: Follow-up entry: O=S(=O)(Oc1ccc2ccccc2c1)c1ccc2c(c1)Cc1cc(S(=O)(=O)Oc3ccc4ccccc4c3)ccc1-2
Solution: 105

Exercise: Next up: O=C1CSC(c2cn(-c3ccccc3)nc2-c2ccc(Br)cc2)N1Cc1ccccc1 (stereo not shown)
Solution: 97.4

Exercise: Cool, now O=C1CCC[C@]2(CN(C(=O)C3CC3)C[C@H]2c2ccccc2F)N1
Solution: 106

Exercise: Would you mind doing CC(=O)Nc1ccc(Oc2c(F)c(F)c(/C=C/CN3CCOCC3)c(F)c2F)cc1 [CBK269302C] as well?
Solution: 89

Exercise: Proceed to O=C(O)c1ccccc1-n1c(=O)c2cc3c(=O)n(-c4ccccc4C(=O)O)c(=O)c3cc2c1=O
Solution: 87.5

Exercise: Also CN(C(=O)c1cc(O)nc2ccccc12)c1nccs1 ?
Solution: 105

Exercise: And what about the compound CCn1cnc2cc(NC(=O)C3CC4C=CC3C43CC3)ccc21 (stereo not shown) ?
Solution: 73.8

Exercise: Subsequent entry: CCc1ccc(Oc2c[nH]nc2-c2ccc(OCc3cnn(-c4ccccc4)c3)cc2O)cc1
Solution: 91.4

Exercise: Same lookup for CCC(CNC(=O)c1ccoc1C)N1CCCC1 (stereo not shown) , please.
Solution: 88.9

Exercise: And for COCCn1c(Cc2ccccc2)nnc1SCc1ccc2ccccc2c1 ?
Solution: 96.6

Exercise: Another compound to look at: CC(CN1CCCCC1)OC(=O)COc1ccc(Br)cc1 (stereo not shown) [CBK265326C]
Solution: 96.9

Exercise: Same question, Cc1cc(OCC(O)CN2CCN(CCO)CC2)cc(C)c1Cl (stereo not shown) [CBK278248C] this time
Solution: 92.7

====

Experiment: in vitro
Details: human, hela cells, % viability
Each entry below lists one item and its recorded viability at 28.5 h, 10 µM value.
Write the number in % without appending the unit.

MOLECULE: O=C(O)CCN1CCN(Cc2ccc(Cl)cc2)CC1
VAL: 87.5

MOLECULE: CC(C)c1ccc(S(=O)(=O)NCCc2ccccc2)cc1
VAL: 94.1

Exercise: Suppose we examine the molecule COc1ccc(CN2CCC(Cc3ccccc3-c3ccc(C)cc3C)(C(=O)O)CC2)cc1 ; what viability at 28.5 h, 10 µM value has been reported?
Solution: 88.5

Exercise: Proceed to O=C(c1cc2nc(-c3ccccc3)cc(-c3ccccc3)n2n1)N1CCN(C(=O)c2ccco2)CC1
Solution: 99.4

Exercise: Next entry: COc1ccc(C(C)C)cc1-c1cncc(N[C@@H](CO)C(C)C)n1
Solution: 102

Exercise: Param item: O=C(Nc1ccccc1F)C1CCCN1c1nc(O)cc(C(F)(F)F)n1 (stereo not drawn)
Solution: 105

Exercise: Follow-up item: CN1CC=C(/C=C/C2=Cc3ccccc3OC2)CC1
Solution: 89.1

Exercise: Do the same for CC(CN1CCOCC1)C(=O)N1CC(C(=O)N2CCN(c3ccccc3)CC2)C1 (stereo not drawn) please
Solution: 90.6

Exercise: What about CCc1cc2c(NC(CCSC)C(=O)O)nc(C)nc2s1 (stereo not drawn) ?
Solution: 90.3

====

Experiment: in vitro
Settings: human, hela cells, % viability
Quick reference for viability at 28.5 h, 10 µM among some compounds
Write the answer as a number in %, unit excluded.

Illustrative cases are given below, each with its answer.
COMPOUND: CCOC(=O)N1CCC(NS(=O)(=O)c2c(C)noc2C)CC1
viability at 28.5 h, 10 µM, %: 102

COMPOUND: Cc1c(C(C)NCC(O)COc2ccc(C#N)cc2)cnn1C (centres unmarked)
viability at 28.5 h, 10 µM, %: 97.5

COMPOUND: NC(=O)c1ccccc1-c1cnc(N)c(-c2ccc(O)cc2)n1
viability at 28.5 h, 10 µM, %: 89.4

COMPOUND: O=C(Nc1ccc2cc(Br)cnc2n1)C(F)(F)F
viability at 28.5 h, 10 µM, %: 90

Now look at this entry.
Exercise: State the recorded viability at 28.5 h, 10 µM for this entry: CCC1CN(C(C)=O)CCC1NCc1ccc(OCC(N)=O)cc1 (centres unmarked)
Solution: 102

====

Test system: CTL2-GFP (C. trachomatis L2/434/Bu, GFP-expressing)
Construct: L2/434/Bu, GFP-expressing
Assay: microbe, parasite or virus in culture
Parameters: Intracellular C. trachomatis growth in HeLa cells, bulk GFP fluorescence relative to DMSO
Details: Chlamydia trachomatis, HeLa, 28.5 h; bulk GFP, mean of 2; read-out: % of control remaining
Entries and their measured activity at 5 µM follow.
Numeric answer only, unit % assumed.

// solved cases for activity at 5 µM follow
COMPOUND: O=C(CC1SC(Nc2ccc(O)cc2)=NC1=O)c1ccccc1 (centres unmarked)
activity at 5 µM / %: 34
//
COMPOUND: CC(=O)NC[C@H]1CN(c2ccc(-c3nnc(CCC#N)s3)c(F)c2)C(=O)O1
activity at 5 µM / %: 2.09

Exercise: Request the reported activity at 5 µM associated with Cc1ccc(CNC(=O)OCc2cccnc2C)o1
Solution: 111

Exercise: Same question for CC(=O)c1cc(-c2cccnc2)cs1 please.
Solution: 120

Exercise: Please give the result for O=C(NCC1CC1)c1ccc(N2CCN(C(=O)c3ccccc3C(F)(F)F)CC2)nn1 too.
Solution: 123

====

This section presents compounds with their documented viability at 28.5 h, 10 µM values.
Experiment: in vitro
Settings: human, hela cells, % viability
Entry rule: numbers only, all in %.

// solved cases for viability at 28.5 h, 10 µM follow
COMPOUND: CCCN1C[C@H](NC(=O)C2CC2)[C@@H](c2ccc(OC)cc2)C1
viability at 28.5 h, 10 µM, %: 116
--
COMPOUND: O=C(C1CC1)N1CCC[C@H]1Cn1nc(-c2ccc(F)cc2)ccc1=O
viability at 28.5 h, 10 µM, %: 79.8
--
COMPOUND: CC(NC(=O)CCC1CCCC1)c1nc(-c2ccncc2)cs1 (stereo not shown)
viability at 28.5 h, 10 µM, %: 86.9
--
COMPOUND: O=C(O)CC(NC(=O)c1ccccc1)c1ccco1 (stereo not shown)
viability at 28.5 h, 10 µM, %: 87.4
--
COMPOUND: Cc1csc2c(C3CCN(C(=O)c4cscn4)CC3)nc(C)n12
viability at 28.5 h, 10 µM, %: 80.2
--
COMPOUND: O=C(O)c1cccc(-c2ccc(Nc3cccc(NC(=O)c4ccncc4)c3)nc2)c1
viability at 28.5 h, 10 µM, %: 101

Exercise: May I ask what viability at 28.5 h, 10 µM has been recorded for CO[C@@]12CC[C@H](OCC(=O)O)C[C@@H]1N(Cc1c(C)cnn1C)CC2 ?
Solution: 95.6
